System: RARa:RXR (NR concentration 270 nM, RXRa partner concentration 90 nM)
Experiment: PBM binding z-score (relative to random genomic background probes); higher = stronger binding; sequences stand for … in GC…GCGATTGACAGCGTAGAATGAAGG
Give measured PBM binding z-score for each item. Keep answers brief.

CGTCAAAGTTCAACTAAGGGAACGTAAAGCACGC 3.84
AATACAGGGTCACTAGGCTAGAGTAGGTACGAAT 3.99
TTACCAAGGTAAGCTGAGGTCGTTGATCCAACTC 1.9
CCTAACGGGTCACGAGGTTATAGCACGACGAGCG 5.55
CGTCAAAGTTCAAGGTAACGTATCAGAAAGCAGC 3.48

Record PBM binding z-score per entry; entries follow.
1. CGAACTAGGTCAAGGAGAGTGAATCTCCGCACGC
2. CAAACTAGGTCGAGGTCAAAGTCGGTTTGTGCCA
3. TCGAGTAGGTTAGTCAGGGCATTCAGCCAACATA
4. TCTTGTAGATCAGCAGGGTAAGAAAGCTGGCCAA
5. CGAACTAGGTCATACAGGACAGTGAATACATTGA

(A)
1. 1.44
2. 4.71
3. 0.135
4. 0.188
5. 2

Record PBM binding z-score per entry; entries follow.
1. ATATGTAGGTTAGCTGGGGTCTTTCAGACTAGGC
2. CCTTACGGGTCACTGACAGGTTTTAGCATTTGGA

(A)
1. 0.915
2. 4.09

Record PBM binding z-score per entry; entries follow.
1. GCTATTAGTTGAAAGGGCAACAGAATGATTCTCG
2. TCTGCTAAGTCAGTTGGTCAGCTAACGAGCTGCC
3. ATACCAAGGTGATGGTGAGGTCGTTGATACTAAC
4. TATACAGAGTCAAAGGCCAGAGTACGAATGTCGA
5. ACTCAAAGTTCATCTAGGTAACGTAAGATATGCT
6. CAAAGTAGGTCAAAGGTCAAAGTCGAGCCAACCA

(A)
1.47
-0.273
1.47
0.733
4.08
8.98

Record PBM binding z-score per entry; entries follow.
1. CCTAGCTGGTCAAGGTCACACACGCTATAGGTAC
2. CGTCCAAGGTCAATGCTAGGTCAGTTAAAGCATT
3. TCTTGTAGATCAACCGGAGGTTAAGAAAGATCGA

(A)
4.64
5.78
1.25

Record PBM binding z-score per entry; entries follow.
1. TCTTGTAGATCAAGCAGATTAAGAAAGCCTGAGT
2. ACAATTAGTTGACTTAGGGCAACCGATACGACGC
3. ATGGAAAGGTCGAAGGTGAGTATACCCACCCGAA
4. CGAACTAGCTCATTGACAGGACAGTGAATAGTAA

(A)
1: 0.536; 2: 0.318; 3: 4.14; 4: 0.164

(Q) Give its PBM binding z-score value. Item: "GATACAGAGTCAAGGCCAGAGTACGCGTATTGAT"
(A) -0.181

* * *

Tested on: PPARg:RXRa 30nM:10nM, anti-RXR (NR concentration 30 nM, RXRa partner concentration 10 nM)
Assay: PBM binding z-score (relative to random genomic background probes); higher = stronger binding; sequences stand for … in GC…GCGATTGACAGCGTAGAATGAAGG
The threshold is inclusive: PBM binding z-score of exactly 2 counts as class 1; values below receive class 0.

Study these solved cases before continuing.
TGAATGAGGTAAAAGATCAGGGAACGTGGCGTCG class 1
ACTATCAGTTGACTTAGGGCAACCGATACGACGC class 0
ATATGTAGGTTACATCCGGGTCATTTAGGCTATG class 1
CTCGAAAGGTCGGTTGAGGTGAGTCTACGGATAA class 0
CAAACTTGGTCAAAGGTCAAAGTCGAGCCAACCA class 1
AGAACGAGGTTACCAAAGATCAGGGAAACGCTTG class 0
GGAACGAGGGCATTCGGGTTGATAGCATGGCGAT class 0
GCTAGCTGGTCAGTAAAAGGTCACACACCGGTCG class 0
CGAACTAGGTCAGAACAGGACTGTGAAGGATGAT class 0
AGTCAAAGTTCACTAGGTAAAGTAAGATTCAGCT class 1

(Q) Is reported PBM binding z-score greater than or equal to 2 here: "ACTATTAGTTGACTTAGAGCAACCGATACGACGC"
(A) class 0

(Q) Repeat with "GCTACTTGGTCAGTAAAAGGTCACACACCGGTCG"
(A) class 1

(Q) Repeat with "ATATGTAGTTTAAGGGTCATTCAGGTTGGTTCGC"
(A) class 1

(Q) Repeat with "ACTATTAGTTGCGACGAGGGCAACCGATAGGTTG"
(A) class 0

(Q) Repeat with "ACAGACAGGCGATGAAGGTAACTCAGGCTATCAT"
(A) class 0

* * *

System: LXRb homodimer (NR concentration 270 nM)
Test: PBM binding z-score (relative to random genomic background probes); higher = stronger binding; sequences stand for … in GC…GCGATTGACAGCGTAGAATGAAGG
The threshold is inclusive: PBM binding z-score of exactly -0.08 counts as criterion met; values below receive criterion not met.

TCATATAGGTAAAGGTAAAAGTCGAACGATATGA criterion not met
CGTCCAAGGTCAATGCTAGGTTAGTGAAAGCATT criterion met
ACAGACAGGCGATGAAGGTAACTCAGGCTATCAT criterion not met
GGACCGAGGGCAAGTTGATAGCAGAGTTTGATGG criterion not met
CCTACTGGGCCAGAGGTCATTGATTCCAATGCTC criterion met

(Q) Is reported PBM binding z-score greater than or equal to -0.08 here: "TAACCTAGGTCAGATCGGGCCAGTATACGCTATA"
(A) criterion met

(Q) Repeat with "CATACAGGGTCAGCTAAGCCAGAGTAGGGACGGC"
(A) criterion met

(Q) Repeat with "AGTCAAAGTTCATCTAGGTAAAGTAAGATATGCT"
(A) criterion met

* * *

Tested on: PPARg homodimer (NR concentration 180 nM)
Assay: PBM binding z-score (relative to random genomic background probes); higher = stronger binding; sequences stand for … in GC…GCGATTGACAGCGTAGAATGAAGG
Give measured PBM binding z-score for each item. Keep answers brief.
One number for each entry.

// below: answered sequences
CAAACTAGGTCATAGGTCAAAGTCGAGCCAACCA 3.4
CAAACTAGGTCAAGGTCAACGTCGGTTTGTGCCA 4.73
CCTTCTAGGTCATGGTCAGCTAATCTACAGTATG 2.24
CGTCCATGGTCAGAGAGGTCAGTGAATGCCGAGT 1.93
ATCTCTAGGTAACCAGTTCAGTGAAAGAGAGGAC 1.06

Continue with the next sequence.
(Q) Give its PBM binding z-score value. Item: "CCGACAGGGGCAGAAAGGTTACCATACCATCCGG"
(A) 1.16

* * *

Give measured PBM binding z-score for each item. Keep answers brief.
Test system: LXRa homodimer (NR concentration 270 nM)
Experiment: PBM binding z-score (relative to random genomic background probes); higher = stronger binding; sequences stand for … in GC…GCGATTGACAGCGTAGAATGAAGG
One number for each entry.

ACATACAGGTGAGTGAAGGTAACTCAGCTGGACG -0.217
CCTTACGGGTCACCAGGTTATAGCACGACGAGCG 0.342
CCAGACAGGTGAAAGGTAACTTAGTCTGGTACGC -0.368
ATACGTAGGTTAAGGGTCATTCAGGTTGGTTCGC 2.92
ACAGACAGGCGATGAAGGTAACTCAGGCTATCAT -0.155

Continue with the next sequence.
(Q) Give LXRa homodimer (NR concentration 270 nM) PBM binding z-score for "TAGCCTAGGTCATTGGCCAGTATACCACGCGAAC"
(A) 0.738

* * *

Tested on: PPARg:RXRa 90nM:30nM, anti-RXR (NR concentration 90 nM, RXRa partner concentration 30 nM)
Test: PBM binding z-score (relative to random genomic background probes); higher = stronger binding; sequences stand for … in GC…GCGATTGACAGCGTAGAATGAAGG
Give measured PBM binding z-score for each item. Keep answers brief.
Answers are plain numbers.

// below: answered sequences
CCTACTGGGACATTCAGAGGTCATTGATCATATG 2.31
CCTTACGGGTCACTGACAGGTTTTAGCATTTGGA 3.04
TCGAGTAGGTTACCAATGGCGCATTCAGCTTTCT 1.17
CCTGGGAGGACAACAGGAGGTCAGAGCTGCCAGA 0.161

Record PBM binding z-score per entry; entries follow.
1. GCTAGCAGGCCATTTGTGTCACTCAATGACGGGC
2. AGTCAAAGTTCACTAGGTAACGGAAGATTCAGCT
3. TATCCTAGGTCATGGGCCAGTATACCACGCGAAC
4. GCTGCTAGGTCAGGTTGGTCAGCCAACGGGTACG
5. ACAGACAGGTGAGTGAAGGTAACTGAGCTGGACG
6. TGAATGAGGTTATAAGAGCAGGGAACGTTGCAAA
7. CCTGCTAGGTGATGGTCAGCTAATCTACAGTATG
8. CCTATTAGTTGACCATAAGGGCAACCCAAGCTCG

(A)
1: -0.744; 2: 5.71; 3: 4.89; 4: 0.115; 5: -0.11; 6: 1.52; 7: -0.369; 8: 0.475

Record PBM binding z-score per entry; entries follow.
1. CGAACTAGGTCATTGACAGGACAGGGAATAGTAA
2. CCTACTGGGCCATTCAGAGGTCATTGAACATATG

(A)
1: 5.76; 2: 2.51

Record PBM binding z-score per entry; entries follow.
1. ACTAGCAGGCCAAGTTTGGGTCACTAAAACAAAG
2. AGTCAAAGTACAGGACGAGGTAACGTAAAGCACG
3. TAGCCTAGGTCATTGAGGGGCCAGTATAGAAAGC
4. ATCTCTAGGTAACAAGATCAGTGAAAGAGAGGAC
5. ATCTCTATGTAAAGATAGTTCAGTGAATGCAAAT
6. AATACAGGGTCACCGTAGGCCAGAGTACGCACAG

(A)
1. 0.427
2. 0.0519
3. 1.49
4. 0.677
5. 0.173
6. 5.65

Cited source for all entries: the supplement of paper PMC6555819
